The compounds listed here are annotated with their IRF reporter.
Test system: RAW-Dual (murine macrophage reporter line)
Method description: IRF reporter (Lucia luciferase) activity fold change vs agonist alone; higher = enhanced IRF activity
Measurement setup: modulator concentration 10 µM; agonist: 3'3'-cGAMP 10 ug/mL
Reply: number alone, nothing else.

INSERT INTO results (compound, val) VALUES
  ('NC(=S)c1cc2ccc(O)cc2oc1=O', 0.925),
  ('FC(F)(F)c1ccnc(NC2CCN(c3ncnc4c3CCCC4)CC2)n1', 1.21),
  ('Cc1ccc(CCC(=O)N2CC(N3C(=O)C4CC=CCC4C3=O)C2)cc1F (stereo not drawn)', 0.741);

Find the measured IRF reporter: item Br.COc1ccc(C2=NN(c3nc(-c4ccc(OC)c(F)c4)cs3)C(c3ccc(OC)cc3)C2)cc1 (stereo not drawn) , target or system RAW-Dual (murine macrophage reporter line).
0.805

Next: O=C1C(=CNCCN2CCOCC2)C(C(F)(F)F)=NN1c1nc2ccccc2s1
0.947

* * *

Test system: RAW-Dual (murine macrophage reporter line)
Method description: IRF reporter (Lucia luciferase) activity fold change vs agonist alone; higher = enhanced IRF activity
Measurement setup: modulator concentration 10 µM; agonist: MPLA […]
Given measured IRF reporter, output true if it is greater than or equal to 1 and false if not.

Reference set (5 entries):
INSERT INTO measurements (molecule, assigned_category) VALUES
  ('CCn1nnc2c(NCCc3c[nH]c4ccccc34)ncnc21', 'true'),
  ('Cc1noc(C)c1CN1CCC(C(F)(F)F)CC1.Cl', 'true'),
  ('COc1ccc(OC)c(Nc2nc(-c3c(C)nc4ccccn34)cs2)c1', 'true'),
  ('CCOC(=O)C(C)N(c1ccc(OC)cc1)S(C)(=O)=O (stereo unspecified)', 'true'),
  ('CSc1ccc(C(=O)O)s1', 'true');

Has O=C(OCCO)c1cc(Cl)c(C(=O)OCCO)cc1Cl a recorded IRF reporter greater than or equal to 1?
true

Also need CCOCCOC(=O)C1=C(C)NC2=C(C(=O)CCC2)C1c1coc2ccc(C)cc2c1=O (stereo unspecified) , thanks.
true

Do the same for CC(C)(C)NC[C@H](O)COc1nsnc1N1CCOCC1.O=C(O)/C=C\C(=O)O please
true

Field entry: c1cncc(CSc2ccc(-c3ccncc3)nn2)c1
false

Could you do the same for CC(=O)Oc1cccc2c1C(=O)c1c(OC(C)=O)cc(C(=O)O)cc1C2=O , please?
false

* * *

Recorded viability score for the following molecules
Tested on: RAW-Dual (murine macrophage reporter line)
Method description: viability score (confluency relative to resting cells, overnight) (fraction); higher = more viable, active = viable (0.7 or more)
Measurement setup: modulator concentration 10 µM
API note: the answer field is a bare number with no unit suffix.

Before answering, review these 10 worked examples.
INSERT INTO assay_data (molecule, val) VALUES
  ('Cc1ccc(S(=O)(=O)NC(=O)NN2CC3CCCC3C2)cc1 (stereo not drawn)', 0.987),
  ('CC(C)Sc1ccc(CC(=O)N2C3C=CCC2CC3)cc1 (stereo not drawn)', 0.877),
  ('Brc1ccc(CN2C3=NCCCN3c3ccccc32)cc1.Cl', 0.96),
  ('COc1cc2nc(N3CCN(C(=O)C4COc5ccccc5O4)CC3)nc(N)c2cc1OC (stereo not drawn)', 0.953),
  ('COc1ccc(C=NN2CCN(C)CC2)c(OC)c1', 1.01),
  ('O=C(Nc1cc(C(F)(F)F)cc(C(F)(F)F)c1)c1cc(Br)ccc1Cl', 1.01),
  ('COc1ccc([C@@H]2Sc3ccccc3N(CCN(C)C)C(=O)[C@@H]2OC(C)=O)cc1.Cl', 0.985),
  ('CN1C(=O)C(=NNC(=O)COc2cccc(Br)c2)c2ccccc21', 1.01),
  ('COc1ccc(-c2coc3cc(O)ccc3c2=O)cc1', 1.01),
  ('CCNC1(C(N)=O)CCN(c2ncnc3c2nc(-c2ccccc2Cl)n3-c2ccc(Cl)cc2)CC1.Cl', 0.688);

Name the reported viability score value associated with the molecule Cc1ccc(O)c(C2=NOC(O)(C(F)(F)F)C2)c1 (stereo not drawn)
0.339

One more molecule: CC(=O)Oc1cccc2c1C(=O)c1c(OC(C)=O)cc(C(=O)O)cc1C2=O
1
